Target: T1, GST (Pierce) (UniProt P08515 1-218 = GST, limits assumed)
T1 construct: control for the GST part of the fusion protein; also called GST protein; Glutathione-S-transferase
Assay: ELISA, coated GST;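 note: ELISA on plates coated with GST alone at 1-10 µg/ml, antibodies applied at 100-1000x dilution, bound antibody detected by peroxidase substrate colour after acid stop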
parameter: binding result

[[record]]
binder = "anti-TMEM106B antibody TM-6 (antibody, V domains shown, mouse IgG from hybridoma) VH: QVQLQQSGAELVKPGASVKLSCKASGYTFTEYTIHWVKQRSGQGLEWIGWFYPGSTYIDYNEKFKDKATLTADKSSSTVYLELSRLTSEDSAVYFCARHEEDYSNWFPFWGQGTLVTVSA VL: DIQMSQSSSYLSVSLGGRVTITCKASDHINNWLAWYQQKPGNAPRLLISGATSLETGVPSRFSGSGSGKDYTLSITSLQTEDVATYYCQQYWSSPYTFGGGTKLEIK"
result = "no binding"

[[record]]
binder = "anti-TMEM106B antibody TM-11 (antibody, V domains shown) VH: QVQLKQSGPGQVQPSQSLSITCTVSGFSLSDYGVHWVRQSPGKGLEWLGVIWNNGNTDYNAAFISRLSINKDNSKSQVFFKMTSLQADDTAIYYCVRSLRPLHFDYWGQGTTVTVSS VL: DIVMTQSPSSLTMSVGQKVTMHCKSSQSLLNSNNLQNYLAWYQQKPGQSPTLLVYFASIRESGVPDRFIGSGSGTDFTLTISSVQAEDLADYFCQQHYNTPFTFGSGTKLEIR"
result = "no binding"

